Data origin: patent US20240374738A1

# Target system: DDR1 (Homo sapiens)
# Sequence (Q08345 19-913): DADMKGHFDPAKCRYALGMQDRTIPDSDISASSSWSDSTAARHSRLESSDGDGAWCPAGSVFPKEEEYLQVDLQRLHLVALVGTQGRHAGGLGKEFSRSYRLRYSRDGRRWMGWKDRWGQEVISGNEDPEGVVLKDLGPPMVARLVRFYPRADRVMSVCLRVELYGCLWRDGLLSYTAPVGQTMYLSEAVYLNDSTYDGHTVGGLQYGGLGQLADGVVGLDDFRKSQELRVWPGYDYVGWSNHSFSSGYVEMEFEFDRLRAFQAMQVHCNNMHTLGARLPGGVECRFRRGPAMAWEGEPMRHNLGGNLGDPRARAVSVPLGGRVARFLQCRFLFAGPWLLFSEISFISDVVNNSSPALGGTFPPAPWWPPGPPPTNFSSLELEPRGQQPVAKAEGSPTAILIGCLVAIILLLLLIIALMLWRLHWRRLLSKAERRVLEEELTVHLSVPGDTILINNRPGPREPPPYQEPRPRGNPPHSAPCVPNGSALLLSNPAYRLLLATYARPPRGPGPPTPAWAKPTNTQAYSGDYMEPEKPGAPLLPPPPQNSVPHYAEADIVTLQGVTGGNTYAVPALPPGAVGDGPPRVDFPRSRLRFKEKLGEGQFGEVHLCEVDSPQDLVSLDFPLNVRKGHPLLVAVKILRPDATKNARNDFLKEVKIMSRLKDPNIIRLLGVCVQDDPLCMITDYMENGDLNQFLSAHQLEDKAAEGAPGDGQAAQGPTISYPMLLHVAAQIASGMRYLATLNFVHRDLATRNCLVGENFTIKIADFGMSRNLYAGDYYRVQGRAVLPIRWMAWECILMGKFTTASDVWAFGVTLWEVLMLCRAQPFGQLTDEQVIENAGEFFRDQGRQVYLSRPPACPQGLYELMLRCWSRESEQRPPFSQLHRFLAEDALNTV
# Assay notes: Degradation of DDR1 in tumor cell MKN45 (Western blot)
# Assay type: cell-based
# Design: The degradation activity of the compounds against DDR1 in the MKN45 cell line; endogenous in cells; host or cells: MKN45
# Test conditions: MKN-45, maximum degradation percentage, MKN45 cells, 24 hours
Recorded measurements of Dmax, one per entry

Molecule	Recorded value
COc1cc2c(Oc3ccc(NC(=O)C4(C(=O)Nc5ccc(F)cc5)CC4)cc3)ccnc2cc1N1CCC(CN2C3CC2CN(CC(=O)Nc2cc4c(cn2)C(=O)N(C2CCC(=O)NC2=O)C4)C3)CC1 (stereo not shown)	65 to 75%

get_value(item= COc1cc2c(Oc3ccc(NC(=O)C4(C(=O)Nc5ccc(F)cc5)CC4)cc3)ccnc2cc1N1CCC(CN2CCN(CCNc3cccc4c3C(=O)N(C3CCC(=O)NC3=O)C4=O)CC2)CC1 (stereo not shown) , readout=Dmax) returns > 85%

get_value(item= C[C@@H](Oc1cc(-c2cnn(C3CCN(CCC(=O)Nc4cccc5c4CN(C4CCC(=O)NC4=O)C5=O)CC3)c2)cnc1N)c1c(Cl)ccc(F)c1Cl (stereo partly shown) , readout=Dmax) returns 75 to 85%

get_value(item= COc1cc2c(Oc3ccc(NC(=O)C4(C(=O)Nc5ccc(F)cc5)CC4)cc3)ccnc2cc1N1CCC(CN2CCN(CCCc3cccc4c3CN(C3CCC(=O)NC3=O)C4=O)CC2)CC1 (stereo not shown) , readout=Dmax) returns 65 to 75%

get_value(item= COc1cc2c(Oc3ccc(NC(=O)C4(C(=O)Nc5ccc(F)cc5)CC4)cc3)ccnc2cc1N1CCC(CN2C3CC2CN(CCC#Cc2cccc4c2CN(C2CCC(=O)NC2=O)C4=O)C3)CC1 (stereo not shown) , readout=Dmax) returns 75 to 85%

get_value(item= COc1cc2c(Oc3ccc(NC(=O)C4(C(=O)Nc5ccc(F)cc5)CC4)cc3)ccnc2cc1N1CCN(CCCC(=O)N[C@H](C(=O)N2C[C@H](O)C[C@H]2C(=O)NCc2ccc(-c3scnc3C)cc2)C(C)(C)C)CC1 , readout=Dmax) returns 75 to 85%
